Reported efflux ratio by item:
assay: Efflux ratio of apparent permeability across basolateral to apical side over apical to basolateral side in MDCK-MDR1 cells; assay type: ADME, cell-based, Canis lupus familiaris; conditions: dog
Response field accepts a number only; no unit should be typed.

Some molecules with known efflux ratio results, for comparison:
• CC(C)[C@@H]1CC[C@]2(C(=O)O)CC[C@]3(C)[C@H](CC[C@@H]4[C@@]5(C)CC6=C(C7C(=O)N(c8ccccc8)C(=O)C7C=C6C(F)(F)F)C(C)(C)[C@@H]5CC[C@]43C)[C@@H]12 (some centres undefined) = 71.8
• C[C@H]1[C@H](C)CC[C@]2(C(=O)O)CC[C@]3(C)C(=CC[C@@H]4[C@@]5(C)CC6=C(C7C(=O)N(c8ccccc8)C(=O)C7C=C6C(F)(F)F)C(C)(C)[C@@H]5CC[C@]43C)[C@H]12 (some centres undefined) = 8.17
• C=C(C)[C@@H]1CC[C@]2(C(=O)O)CC[C@]3(C)[C@H](CC[C@@H]4[C@@]5(C)Cc6c(C(F)(F)F)cc(=O)oc6C(C)(C)[C@@H]5CC[C@]43C)[C@@H]12 = 26

# next molecule below
Query :: Which efflux ratio is listed for `C=C(C)[C@@H]1CC[C@]2(C(=O)O)CC[C@]3(C)[C@H](CC[C@@H]4[C@@]5(C)Cc6c(C(F)(F)F)cc(C(=O)OC)c(C(=O)OC)c6C(C)(C)[C@@H]5CC[C@]43C)[C@@H]12` ?
Result :: 6.95

* * *

assay: Metabolic stability in human liver microsomes assessed as compound remaining at measured at 15 mins in presence of NADPH by RF-MS analysis; assay type: ADME, Microsome; details: read-out: Stability
Reported remaining at 0.25 h by item:
# value in %; strip the unit string

Some compounds with known remaining at 0.25 h results, for comparison:
- CC(C)[C@@H]1CC[C@]2(C(=O)O)CC[C@]3(C)[C@H](CC[C@@H]4[C@@]5(C)Cc6c(C(F)(F)F)cc(=O)oc6C(C)(C)[C@@H]5CC[C@]43C)[C@@H]12: 106
- C=C(C)[C@@H]1CC[C@]2(C(=O)O)CC[C@]3(C)[C@H](CC[C@@H]4[C@@]5(C)CC6=C(C7C(=O)N(c8ccccc8)C(=O)C7C=C6C(F)(F)F)C(C)(C)[C@@H]5CC[C@]43C)[C@@H]12 (stereo partly specified): 99
- C=C(C)[C@@H]1CC[C@]2(C(=O)O)CC[C@]3(C)[C@H](CC[C@@H]4[C@@]5(C)Cc6c(C(F)(F)F)cc(=O)oc6C(C)(C)[C@@H]5CC[C@]43C)[C@@H]12: 100

Query :: Which remaining at 0.25 h is listed for `C=C(C)[C@@H]1CC[C@]2(C(=O)O)CC[C@]3(C)[C@H](CC[C@@H]4[C@@]5(C)Cc6c(C(F)(F)F)cc(C(=O)OC)c(C(=O)OC)c6C(C)(C)[C@@H]5CC[C@]43C)[C@@H]12` ?
Result :: 91

Query :: Which remaining at 0.25 h is listed for CC(C)[C@@H]1CC[C@]2(C(=O)O)CC[C@]3(C)[C@H](CC[C@@H]4[C@@]5(C)CC6=C(C7C(=O)N(c8ccccc8)C(=O)C7C=C6C(F)(F)F)C(C)(C)[C@@H]5CC[C@]43C)[C@@H]12 (stereo partly specified) ?
Result :: 92

Query :: Which remaining at 0.25 h is listed for C[C@H]1[C@H](C)CC[C@]2(C(=O)O)CC[C@]3(C)C(=CC[C@@H]4[C@@]5(C)CC6=C(C7C(=O)N(c8ccccc8)C(=O)C7C=C6C(F)(F)F)C(C)(C)[C@@H]5CC[C@]43C)[C@H]12 (stereo partly specified) ?
Result :: 82
